Each record here notes measured IC50.
target: ITK (Homo sapiens (Human), UniProt Q08881); assay: IC50 against ITK; format: biochemical
Sequence (Q08881 whole entry): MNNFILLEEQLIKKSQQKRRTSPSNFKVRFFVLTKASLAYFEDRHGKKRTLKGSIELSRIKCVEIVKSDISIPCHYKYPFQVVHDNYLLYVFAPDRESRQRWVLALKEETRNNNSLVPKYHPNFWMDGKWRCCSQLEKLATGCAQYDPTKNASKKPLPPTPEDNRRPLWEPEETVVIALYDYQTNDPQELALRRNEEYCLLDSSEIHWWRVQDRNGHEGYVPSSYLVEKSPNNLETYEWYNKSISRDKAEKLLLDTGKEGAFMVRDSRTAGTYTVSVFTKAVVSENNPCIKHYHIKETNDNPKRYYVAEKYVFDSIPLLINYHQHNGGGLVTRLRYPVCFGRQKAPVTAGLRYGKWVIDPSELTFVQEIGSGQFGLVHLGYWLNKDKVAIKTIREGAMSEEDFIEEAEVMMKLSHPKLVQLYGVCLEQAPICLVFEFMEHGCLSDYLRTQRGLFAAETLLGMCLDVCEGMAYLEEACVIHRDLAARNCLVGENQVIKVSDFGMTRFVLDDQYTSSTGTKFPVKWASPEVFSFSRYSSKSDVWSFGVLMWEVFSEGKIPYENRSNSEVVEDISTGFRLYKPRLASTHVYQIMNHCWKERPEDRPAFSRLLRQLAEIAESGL

## Task Look at this compound and give its reported IC50. C=C(CN(C)C)C(=O)N1CCCN(C(=O)c2cc(Sc3cnc(NC(=O)C4CC4)s3)c(C)cc2OC)C[C@H]1C [Compound 88]
## Result 100 to 1000 nM

## Task Look at this compound and give its reported IC50. C=CC(=O)N1CCCN(C(=O)c2cc(Sc3cnc(NC(=O)C4CC4)s3)ccc2OC)C[C@H]1C [Compound 77]
## Result 10 to 100 nM

## Task Look at this compound and give its reported IC50. C=CC(=O)N1CCN(C(=O)c2cc(Sc3cnc(Nc4ccccn4)s3)c(C)cc2C)CC1 [Compound 133]
## Result < 10 nM

## Task Look at this compound and give its reported IC50. C=CC(=O)N1CCCN(C(=O)c2cc(Sc3cnc(NC(=O)C4CC4)s3)cc(C)c2C)C[C@H]1C [Compound 63]
## Result 100 to 1000 nM

## Task Look at this compound and give its reported IC50. C=CC(=O)N1CCN(C(=O)c2cc(Sc3cnc(NC(=O)c4ccsc4)s3)c(C)cc2C)C[C@H]1CC [Compound 130]
## Result < 10 nM

## Task Look at this compound and give its reported IC50. C=CC(=O)N1C[C@H]2CC[C@@H](C1)N2C(=O)c1cc(Sc2cnc(NC(=O)C3CC3)s2)c(C)cc1OC [Compound 17]
## Result < 10 nM

## Task Look at this compound and give its reported IC50. C=CC(=O)N1CCN(C(=O)c2cc(Sc3cnc(NC(=O)c4cccc(CN(C)C)c4)s3)c(C)cc2OC)C[C@H]1C [Compound 32]
## Result < 10 nM

---

target: TXK (Homo sapiens (Human)); experiment: IC50 against TXK; assay type: biochemical; settings: ratio of TXK IC50 to ITK IC50
measured-parameter: TXK/ITK

These recorded examples may help you get a feel for the data.
[[record]]
compound = "C=CC(=O)N1CCCN(C(=O)c2cc(Sc3cnc(NC(=O)C4CCC4)s3)c(C)cc2OC)C[C@H]1C [Compound 86]"
measured_parameter = "TXK/ITK"
measured = 227.64

[[record]]
compound = "COc1cc(C)c(Sc2cnc(NC(=O)C3CC3)s2)cc1C(=O)N1CCN(C(=O)/C=C/CN(C)C)CC1 [Compound 3]"
measured_parameter = "TXK/ITK"
measured = 5.162


(I) C=CC(=O)N1CCCN(C(=O)c2cc(Sc3cnc(Nc4ccccn4)s3)c(C)cc2OC)C[C@H]1C [Compound 103]
(II) CC#CC(=O)N1CCCN(C(=O)c2cc(Sc3cnc(NC(=O)c4cccc(CN(C)C)c4)s3)c(C)cc2OC)CC1 [Compound 38]
## Task Of the pair I and II , name the member with the lesser recorded TXK/ITK. Please indicate the selected item by its label.
## Result II

---

target: UniProtKB Q06187; assay: IC50 against BTK; format: biochemical
measured-parameter: IC50

[[record]]
compound = "C=CC(=O)N1CC[C@@H](N(C)C(=O)c2cc(Sc3cnc(Nc4ccccn4)s3)c(C)cc2OC)C1"
target_or_test_system = "UniProtKB Q06187"
measured = "< 10 nM"

[[record]]
compound = "C=CC(=O)N1C[C@@H]2C[C@H]1CN2C(=O)c1cc(Sc2cnc(NC(=O)C3CC3)s2)c(C)cc1OC"
target_or_test_system = "UniProtKB Q06187"
measured = "< 10 nM"

[[record]]
compound = "C=CC(=O)N1CCN(C(=O)c2cc(Sc3cnc(NC(=O)c4cccc(CN(C)C)c4)s3)c(C)cc2OC)C[C@H]1C"
target_or_test_system = "UniProtKB Q06187"
measured = "100 to 1000 nM"

[[record]]
compound = "C=CC(=O)N1CCN(C(=O)c2cc(Sc3cnc(NC(=O)C4CCCC4)s3)c(C)cc2OC)CC1"
target_or_test_system = "UniProtKB Q06187"
measured = "1000 to 10000 nM"


## Task Look at this compound and give its reported IC50. "C=CC(=O)N1CCN(C(=O)c2cc(Sc3cnc(NC(=O)c4ccsc4)s3)c(C)cc2OC)CC1(C)C"
## Result 10 to 100 nM

## Task Look at this compound and give its reported IC50. "C=CC(=O)N1CCN(C(=O)c2cc(Sc3cnc(NC(=O)C4CC4)s3)c(C)cc2OC)C[C@H]1C#N"
## Result 10 to 100 nM

## Task Look at this compound and give its reported IC50. "C=CC(=O)N1CCN(C(=O)c2cc(Sc3cnc(NC(=O)c4cccc(CN(C)C)c4)s3)c(C)cc2C)C[C@H]1C#N"
## Result 10 to 100 nM

## Task Look at this compound and give its reported IC50. "C=CC(=O)N1CCN(C(=O)c2cc(Sc3cnc(NC(C)=O)s3)c(C)cc2OC)[C@@H](C)C1"
## Result 100 to 1000 nM

---

Each record here notes measured IC50.
target: TXK (Homo sapiens (Human), UniProt P42681); assay: IC50 against TXK; format: biochemical
Sequence (P42681 whole entry, species assumed): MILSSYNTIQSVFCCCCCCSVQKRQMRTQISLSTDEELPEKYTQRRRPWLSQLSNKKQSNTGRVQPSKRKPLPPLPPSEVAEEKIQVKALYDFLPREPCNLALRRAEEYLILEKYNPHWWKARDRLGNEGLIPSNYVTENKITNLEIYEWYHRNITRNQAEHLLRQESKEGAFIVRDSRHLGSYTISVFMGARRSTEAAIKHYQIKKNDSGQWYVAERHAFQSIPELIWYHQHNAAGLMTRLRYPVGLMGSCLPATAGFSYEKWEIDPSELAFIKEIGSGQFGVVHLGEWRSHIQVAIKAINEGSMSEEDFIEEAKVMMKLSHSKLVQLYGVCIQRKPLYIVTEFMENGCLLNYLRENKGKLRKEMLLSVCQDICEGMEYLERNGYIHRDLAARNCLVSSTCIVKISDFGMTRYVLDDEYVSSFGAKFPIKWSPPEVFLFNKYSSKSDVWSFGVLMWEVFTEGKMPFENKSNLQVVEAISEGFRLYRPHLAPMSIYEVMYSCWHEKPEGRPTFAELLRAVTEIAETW

## Task Look at this molecule and give its reported IC50. C=CC(=O)N1CCN(C(=O)c2cc(Sc3cnc(NC(C)=O)s3)c(C)cc2OC)C(C)(C)C1 [Compound 5]
## Result < 10 nM

## Task Look at this molecule and give its reported IC50. C=CC(=O)N1CCN(C(=O)c2cc(Sc3cnc(NC(=O)c4ccc(CN(C)C)cc4)s3)c(C)cc2OC)CC1 [Compound 34]
## Result 10 to 100 nM

## Task Look at this molecule and give its reported IC50. C=CC(=O)N1CCN(C(=O)c2cc(Sc3cnc(NC(=O)c4ccsc4)s3)c(C)cc2OC)C(C)(C)C1 [Compound 142]
## Result < 10 nM

## Task Look at this molecule and give its reported IC50. CC#CC(=O)N1CCCN(C(=O)c2cc(Sc3cnc(NC(=O)c4cccc(CN(C)C)c4)s3)c(C)cc2OC)CC1 [Compound 38]
## Result 1000 to 10000 nM

## Task Look at this molecule and give its reported IC50. C=CC(=O)N1CCN(C(=O)c2cc(Sc3cnc(NC(=O)C4CC4)s3)c(C)cc2C)CC1 [Compound 73]
## Result 10 to 100 nM

## Task Look at this molecule and give its reported IC50. C=CC(=O)N1[C@@H]2CC[C@H]1CN(C(=O)c1cc(Sc3cnc(NC(=O)C4CC4)s3)c(C)cc1OC)C2 [Compound 18]
## Result < 10 nM

---

biological target: BTK (Homo sapiens (Human), UniProt Q06187); assay: IC50 against BTK; format: biochemical
Sequence (Q06187 whole entry, species assumed): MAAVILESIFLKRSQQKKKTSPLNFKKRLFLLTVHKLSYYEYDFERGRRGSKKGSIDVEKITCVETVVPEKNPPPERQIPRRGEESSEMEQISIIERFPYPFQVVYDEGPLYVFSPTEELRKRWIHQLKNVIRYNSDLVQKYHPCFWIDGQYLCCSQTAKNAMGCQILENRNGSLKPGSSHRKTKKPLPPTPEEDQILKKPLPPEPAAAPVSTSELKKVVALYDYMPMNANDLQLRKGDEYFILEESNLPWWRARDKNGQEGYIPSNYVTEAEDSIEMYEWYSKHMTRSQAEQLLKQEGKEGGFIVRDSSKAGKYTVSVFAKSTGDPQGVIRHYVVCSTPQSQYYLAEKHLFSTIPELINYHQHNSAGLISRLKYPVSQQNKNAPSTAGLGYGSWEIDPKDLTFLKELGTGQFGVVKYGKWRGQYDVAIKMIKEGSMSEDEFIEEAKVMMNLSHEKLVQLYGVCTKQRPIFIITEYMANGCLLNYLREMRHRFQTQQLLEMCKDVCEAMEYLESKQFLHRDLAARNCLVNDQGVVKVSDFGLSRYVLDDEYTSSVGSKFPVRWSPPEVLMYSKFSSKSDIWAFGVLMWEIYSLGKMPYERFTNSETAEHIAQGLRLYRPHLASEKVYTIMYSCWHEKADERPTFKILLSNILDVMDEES
Each record here notes measured IC50.

## Task Look at this compound and give its reported IC50. "C=CC(=O)N1CCCN(C(=O)c2cc(Sc3cnc(NC(=O)C(C)(C)C)s3)c(C)cc2OC)CC1"
## Result ≥ 10000 nM

## Task Look at this compound and give its reported IC50. "C=CC(=O)N1CCN(C(=O)c2cc(Sc3cnc(NC(C)=O)s3)c(C)cc2C)C[C@H]1C#N"
## Result 10 to 100 nM

## Task Look at this compound and give its reported IC50. "C=CC(=O)N1CCN(C(=O)c2cc(Cc3cnc(NC(=O)C4CC4)s3)c(C)cc2OC)CC1"
## Result 10 to 100 nM

---

molecular target: TXK (Homo sapiens (Human)); test: IC50 against TXK; assay type: biochemical; details: ratio of TXK IC50 to ITK IC50
measured-parameter: TXK/ITK

These recorded examples may help you get a feel for the data.
[[record]]
compound = "C=CC(=O)N1CCN(C(=O)c2cc(Sc3cnc(NC(=O)c4cccc(CN(C)C)c4)s3)c(C)cc2C)C[C@H]1C#N [Compound 125]"
target_or_test_system = "TXK (Homo sapiens (Human))"
measured_parameter = "TXK/ITK"
measured = 2.3

[[record]]
compound = "C=CC(=O)N1CCN(C(=O)c2cc(Sc3cnc(NC(=O)C4CC4)s3)c(C)cc2OC)C[C@H]1CC [Compound 42]"
target_or_test_system = "TXK (Homo sapiens (Human))"
measured_parameter = "TXK/ITK"
measured = 10.152

[[record]]
compound = "C=CC(=O)N1[C@@H]2CC[C@H]1CN(C(=O)c1cc(Sc3cnc(NC(C)=O)s3)c(C)cc1OC)C2 [Compound 8]"
target_or_test_system = "TXK (Homo sapiens (Human))"
measured_parameter = "TXK/ITK"
measured = 11.265

[[record]]
compound = "C=CC(=O)N1[C@@H]2CC[C@H]1CN(C(=O)c1cc(Sc3cnc(NC(=O)c4ccsc4)s3)c(C)cc1OC)C2 [Compound 155]"
target_or_test_system = "TXK (Homo sapiens (Human))"
measured_parameter = "TXK/ITK"
measured = 2.73

[[record]]
compound = "C=CC(=O)N1CCCN(C(=O)c2cc(Sc3cnc(NC(=O)CN(C)C)s3)c(C)cc2OC)CC1 [Compound 35]"
target_or_test_system = "TXK (Homo sapiens (Human))"
measured_parameter = "TXK/ITK"
measured = 48.433


(a) C=CC(=O)N1CCN(C(=O)c2cc(Sc3cnc(NC4CC4)s3)c(C)cc2OC)CC1 [Compound 67]
(b) C=CC(=O)N1CCN(C(=O)c2cc(Sc3cnc(NC(=O)c4cccc(CN(C)C)c4)s3)c(C)cc2OC)CC(F)C1 (stereo not shown) [Compound 66]
## Task Of the pair a and b , name the member with the lesser recorded TXK/ITK. Please indicate the selected item by its label.
## Result a
